Data origin, for the record: patent US7601716B2

Collected IC50 values appear next to each entry.
# Test system: baculovirus-expressed ALK (Homo sapiens, UniProt Q9UM73)
# Sequence (Q9UM73 19-1620): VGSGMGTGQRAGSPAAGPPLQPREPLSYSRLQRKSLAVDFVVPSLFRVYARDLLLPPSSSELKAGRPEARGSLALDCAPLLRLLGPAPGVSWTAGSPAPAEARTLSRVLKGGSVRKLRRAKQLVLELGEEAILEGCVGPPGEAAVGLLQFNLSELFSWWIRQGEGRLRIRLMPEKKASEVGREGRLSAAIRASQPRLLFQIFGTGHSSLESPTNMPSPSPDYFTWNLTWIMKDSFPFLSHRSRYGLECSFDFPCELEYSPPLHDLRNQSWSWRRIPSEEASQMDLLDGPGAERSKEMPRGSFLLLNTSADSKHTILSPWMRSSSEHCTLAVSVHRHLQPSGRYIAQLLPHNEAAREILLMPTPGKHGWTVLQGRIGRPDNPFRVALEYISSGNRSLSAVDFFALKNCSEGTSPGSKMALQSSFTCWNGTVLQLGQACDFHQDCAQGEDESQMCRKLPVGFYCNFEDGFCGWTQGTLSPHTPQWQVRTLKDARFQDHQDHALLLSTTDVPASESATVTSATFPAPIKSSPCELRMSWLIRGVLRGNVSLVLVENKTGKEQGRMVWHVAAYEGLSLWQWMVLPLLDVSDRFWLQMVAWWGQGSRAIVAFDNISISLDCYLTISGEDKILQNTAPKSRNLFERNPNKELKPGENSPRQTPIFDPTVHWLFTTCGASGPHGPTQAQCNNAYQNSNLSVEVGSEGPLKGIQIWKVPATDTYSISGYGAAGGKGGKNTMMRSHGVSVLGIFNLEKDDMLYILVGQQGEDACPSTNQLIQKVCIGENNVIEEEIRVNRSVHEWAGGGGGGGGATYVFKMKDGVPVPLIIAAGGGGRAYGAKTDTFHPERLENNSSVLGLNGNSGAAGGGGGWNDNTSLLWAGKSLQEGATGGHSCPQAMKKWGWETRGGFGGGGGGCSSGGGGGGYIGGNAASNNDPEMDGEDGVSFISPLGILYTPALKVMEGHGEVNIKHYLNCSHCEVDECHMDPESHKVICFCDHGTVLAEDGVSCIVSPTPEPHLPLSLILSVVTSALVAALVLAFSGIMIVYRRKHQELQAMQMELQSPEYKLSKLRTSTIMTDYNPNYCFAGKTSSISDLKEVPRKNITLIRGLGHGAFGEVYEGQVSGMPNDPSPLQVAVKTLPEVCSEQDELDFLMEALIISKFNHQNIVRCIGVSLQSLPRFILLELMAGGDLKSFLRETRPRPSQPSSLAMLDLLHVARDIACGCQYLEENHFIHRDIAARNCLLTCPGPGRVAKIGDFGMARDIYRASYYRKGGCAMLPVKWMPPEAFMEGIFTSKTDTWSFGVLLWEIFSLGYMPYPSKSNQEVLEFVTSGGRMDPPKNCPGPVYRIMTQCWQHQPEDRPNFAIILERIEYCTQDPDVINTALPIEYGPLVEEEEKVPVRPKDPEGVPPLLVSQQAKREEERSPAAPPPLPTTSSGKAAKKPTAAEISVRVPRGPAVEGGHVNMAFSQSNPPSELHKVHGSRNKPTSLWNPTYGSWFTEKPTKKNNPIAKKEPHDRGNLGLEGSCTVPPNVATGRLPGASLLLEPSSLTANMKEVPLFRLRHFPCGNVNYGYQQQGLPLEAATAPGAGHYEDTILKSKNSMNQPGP
# Experiment notes: ALK Kinase Assay (ELISA/TRF, PLC-γ substrate); also: 1 µM ATP (Km level)
# Format: biochemical
# Measurement setup: read-out: ALK Kinase Inhibition (IC50)
# Procedure: Example compounds were tested for their ability to inhibit the kinase activity of baculovirus-expressed ALK using a modification of the ELISA protocol reported for trkA in Angeles, T. S. et al., Anal. Biochem. 1996, 236, 49-55, which is incorporated herein by reference in its entirety. […] The plate was gently agitated and after thirty minutes, the fluorescence of the resulting solution was measured using the EnVision 2100 (or 2102) multilabel plate reader (Perkin Elmer). […]

[[record]]
compound = "CN(C)CCCCNC(=O)c1cnc2c(c1)N(Cc1cc(Cl)ccc1C(F)(F)F)CCN2"
endpoint_label = "IC50"
value_measured = "< 0.1 µM"

[[record]]
compound = "CCOC(=O)N1CCC(NC(=O)c2cccc(-c3cnc4c(c3)N(Cc3cc(Cl)ccc3C(F)(F)F)CCN4)c2)CC1"
endpoint_label = "IC50"
value_measured = "0.1 to 1 µM"

[[record]]
compound = "CC(c1c(F)ccc(F)c1Cl)N1CCNc2ncc(I)cc21 (stereo not shown)"
endpoint_label = "IC50"
value_measured = "1 to 10 µM"

[[record]]
compound = "CCOC(=O)c1ccc(-c2cnc3c(c2)N(Cc2ccccc2)CCN3)cc1"
endpoint_label = "IC50"
value_measured = "1 to 10 µM"


Ask: Consider the compound shown here: O=C(c1ccc(-c2cnc3c(c2)N(Cc2cc(Cl)ccc2C(F)(F)F)CCN3)cc1)N1CCN(C(=O)C2CCCO2)CC1 (stereo not shown) What is its recorded IC50?
Reply: < 0.1 µM

Ask: I would be grateful if you could share the reported IC50 for O=C(c1cnc2c(c1)N(Cc1cc(Cl)ccc1Cl)CCN2)N1CCN(c2ncccn2)CC1 .
Reply: 1 to 10 µM

Ask: So what's the measured IC50 for this one? Fc1ccc(F)c(CN2CCNc3ncc(-c4ccc(N5CCOCC5)nc4)cc32)c1
Reply: 0.1 to 1 µM
